Entry source: PubChem BioAssay AID720512

- measuredOn: Toxin B (TcdB) glycohydrolase, Clostridioides difficile 630
- protocolDetails: TcdB glycohydrolase inhibitors, dose response, biochemical, cherry-pick, plate reader (AID 720512)
- experimentalConditions: recombinant TcdB glycohydrolase activity
Calls of active or inactive are those of the source. The rule behind the calls is not given here.
Lab note: assign the record to one of 1 (yes) = active, 0 (no) = inactive

>  <compound>
CCOC(=O)/C(=N/Nc1ccc(Br)cc1)N1CC(C)OC(C)C1 (stereo unspecified)

>  <measuredOn>
Toxin B (TcdB) glycohydrolase, Clostridioides difficile 630

>  <classAssignment>
1 (yes)

$$$$
>  <compound>
O=S(=O)(Oc1ccccc1/C=N/n1cnnc1)c1ccccc1

>  <measuredOn>
Toxin B (TcdB) glycohydrolase, Clostridioides difficile 630

>  <classAssignment>
0 (no)

$$$$
>  <compound>
Cc1ccc(-n2c(SCC(=O)O)nc3c(sc(=S)n3-c3ccc(C)c(C)c3)c2=O)cc1

>  <measuredOn>
Toxin B (TcdB) glycohydrolase, Clostridioides difficile 630

>  <classAssignment>
0 (no)

$$$$

Which outcome did this test record for the compound O=C(NC(=S)Nc1ccc(N2CCOCC2)cc1)c1ccccc1 ?
0 (no)

Ok, now ONC(=Nc1ccccc1Cl)c1ccccc1Cl
0 (no)

Moving on to the next compound: CCCNC(=O)C[C@H]1CC[C@@H]2[C@@H](COc3ccc(NC(=O)c4ccc5c(c4)OCO5)cc3C(=O)N2C)O1
0 (no)

Another compound: CN(C)CCNC(=O)c1cc2c(s1)-c1ccc(Cl)cc1SC2
0 (no)
